assay: Plasma and tissue concentrations of ketamine via olfactory delivery compared to intravenous administration in rats (LC/MS/MS); format: in vivo, male Sprague Dawley rats; details: rat, plasma, OD, 5 mg/kg, 5 min
Counter-ions that a name gives are not always drawn.
property-name: concentration at 5 min (ng/mL)

                                   compound  readout_value
0  CNC1(c2ccccc2Cl)CCCCC1=O (stereo not shown) [Ketamine-HCl]           7600

###

assay: Plasma and tissue concentrations of ketamine via olfactory delivery compared to intravenous administration in rats (LC/MS/MS); type: in vivo, male Sprague Dawley rats; conditions: rat, plasma, IV, 5 mg/kg, 60 min
Where a name gives a salt, the structure may show the parent alone.
property-name: concentration at 1 h (ng/mL)

>>> df
                                   molecule         property_name  readout_value
0  CNC1(c2ccccc2Cl)CCCCC1=O (stereo not shown) [Ketamine-HCl]  concentration at 1 h            150

###

experiment: Plasma and tissue concentrations of ketamine via olfactory delivery compared to intravenous administration in rats (LC/MS/MS); assay type: in vivo, male Sprague Dawley rats; details: rat, plasma, OD, 5 mg/kg, 60 min
Counter-ions that a name gives are not always drawn.
property-name: concentration at 1 h

In [3]: df
Out[3]:
                                   molecule  readout_value
0  CNC1(c2ccccc2Cl)CCCCC1=O (stereo not shown) [Ketamine-HCl]      383 ng/mL

###

assay: Plasma and tissue concentrations of ketamine via olfactory delivery compared to intravenous administration in rats (LC/MS/MS); format: in vivo, male Sprague Dawley rats; conditions: rat, plasma, OD, 5 mg/kg, 15 min
Where a name gives a salt, the structure may show the parent alone.
property-name: concentration at 0.25 h

                                   compound  readout_value
0  CNC1(c2ccccc2Cl)CCCCC1=O (stereo not shown) [Ketamine-HCl]     7250 ng/mL

###

experiment: Plasma and tissue concentrations of ketamine via olfactory delivery compared to intravenous administration in rats (LC/MS/MS); format: in vivo, male Sprague Dawley rats; settings: rat, plasma, OD, 5 mg/kg, 200 min
Where a name gives a salt, the structure may show the parent alone.
property-name: concentration at 200 min (ng/mL)

                                   compound             property_name  readout_value
0  CNC1(c2ccccc2Cl)CCCCC1=O (stereo not shown) [Ketamine-HCl]  concentration at 200 min            5.3

###

experiment: Plasma and tissue concentrations of ketamine via olfactory delivery compared to intravenous administration in rats (LC/MS/MS); type: in vivo, male Sprague Dawley rats; conditions: rat, plasma, IV, 5 mg/kg, 30 min
Counter-ions that a name gives are not always drawn.
property-name: concentration at 0.5 h (ng/mL)

>>> df
                                   compound  readout_value
0  CNC1(c2ccccc2Cl)CCCCC1=O (stereo not shown) [Ketamine-HCl]            330

###

Assay: Plasma and tissue concentrations of ketamine via olfactory delivery compared to intravenous administration in rats (LC/MS/MS)
Assay type: in vivo, male Sprague Dawley rats
Conditions: rat, plasma, OD, 5 mg/kg, 120 min
Protocol: Drug Administration and Sample Collection: Intravenous (IV) administration was conducted by 100 μL tail vein injection. Olfactory delivery (OD) administration was conducted by a. 0.699 mm diameter cannula inserted into the right nostril with a minimal angle of 20-degrees to the target of the correct meatus. […]
Counter-ions that a name gives are not always drawn.
property-name: concentration at 2 h (ng/mL)

>>> print(df.to_string())
                                   compound  readout_value
0  CNC1(c2ccccc2Cl)CCCCC1=O (stereo not shown) [Ketamine-HCl]             63
